# experimentalSystem: porcine pancreatic lipase (Sus scrofa)
# Sequence (P00591 1-450): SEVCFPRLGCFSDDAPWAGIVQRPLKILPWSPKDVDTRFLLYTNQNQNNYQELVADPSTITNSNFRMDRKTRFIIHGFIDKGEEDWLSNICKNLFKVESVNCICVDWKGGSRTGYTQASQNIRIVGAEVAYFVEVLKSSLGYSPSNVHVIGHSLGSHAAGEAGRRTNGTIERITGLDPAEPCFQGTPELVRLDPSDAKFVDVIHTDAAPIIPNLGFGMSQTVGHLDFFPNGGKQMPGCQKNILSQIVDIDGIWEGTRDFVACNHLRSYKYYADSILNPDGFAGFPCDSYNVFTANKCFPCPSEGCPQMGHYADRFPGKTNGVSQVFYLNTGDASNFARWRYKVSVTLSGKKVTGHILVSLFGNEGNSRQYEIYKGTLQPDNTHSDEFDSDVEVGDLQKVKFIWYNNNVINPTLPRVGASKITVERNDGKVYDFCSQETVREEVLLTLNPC
# testName: Lipase inhibition assay (p-NPB)
# assaySetup: isolated compounds; tested 10–2000 µM; mean ± SD (n = 3)
experimentalReadout: IC50 (µM)
Answers are plain numbers, in µM.

[
  {
    "compound": "CC1OC(Oc2c(O)cc(O)c3c(=O)cc(-c4ccc(O)cc4)oc23)C(O)C(O)C1O (stereo not drawn) [Isoscutellarein-8-O-rhamnoside (10), Isoscutellarein 8-O-rhamnoside]",
    "experimentalReadout": "IC50",
    "resultUnits": "µM",
    "measured": 101
  }
]

Query compound follows.
(Q) Look up IC50: "O=C(O)c1ccc(O)c(O)c1"
(A) 22.9

====

# experimentalSystem: α-glucosidase from Saccharomyces cerevisiae
# testName: α-Glucosidase inhibition assay (p-NPG)
# assaySetup: isolated compounds; tested 1–1000 µM; mean ± SD (n = 3)
experimentalReadout: IC50 (µM)
One number for each entry, in µM.

These solved cases illustrate the format of a correct answer.
[
  {
    "compound": "O=C(O)c1ccc(O)c(O)c1 [Protocatechuic acid (1), Protocatechuic acid]",
    "IC50, µM": 176
  },
  {
    "compound": "COc1cc(/C=C/C(=O)OC[C@H]2O[C@@](CO)(O[C@H]3O[C@H](CO)[C@@H](O)[C@H](O)[C@H]3O)[C@@H](OC(=O)/C=C/c3ccc(O)c(OC)c3)[C@@H]2O)ccc1O [Helonioside A (9)]",
    "IC50, µM": 154
  }
]

Query compound follows.
(Q) Look up IC50: O=C(/C=C/c1ccc(O)c(O)c1)OC1C(O)CC(O)(C(=O)O)CC1O (stereo not drawn) [4-O-Caffeoylquinic acid (4), 4-O-Caffeoylquinic acid]
(A) 736

====

# experimentalSystem: porcine pancreatic lipase (Sus scrofa)
# testName: Lipase inhibition assay (p-NPB)
# assaySetup: isolated compounds; tested 10–2000 µM; mean ± SD (n = 3)
experimentalReadout: IC50

These solved cases illustrate the format of a correct answer.
[
  {
    "molecule": "C[C@@H]1O[C@@H](Oc2c(-c3ccc(O)c(O)c3)oc3cc(O)cc(O)c3c2=O)[C@H](O)[C@H](O)[C@H]1O [Quercitrin (6), Quercetin 3-O-α-L-rhamnoside]",
    "IC50": "96.7 µM"
  },
  {
    "molecule": "CC1OC(Oc2cc(O)c3c(=O)c(OC4OC(CO)C(O)C(O)C4O)c(-c4ccc(O)cc4)oc3c2)C(O)C(O)C1O (stereo not drawn)",
    "IC50": "> 1000 µM"
  },
  {
    "molecule": "Oc1ccc(/C=C/c2cc(O)cc(O)c2)cc1 [trans-Resveratrol (8), 3,5,4′-Trihydroxy-trans-stilbene]",
    "IC50": "61.2 µM"
  },
  {
    "molecule": "O=C(/C=C/c1ccc(O)c(O)c1)OC1CC(O)(C(=O)O)CC(O)C1O (stereo not drawn) [3-O-Caffeoylquinic acid (3), 3-O-Caffeoylquinic acid]",
    "IC50": "> 1000 µM"
  },
  {
    "molecule": "O=C(/C=C/c1ccc(O)c(O)c1)OC1CC(O)(C(=O)O)CC(O)C1O (stereo not drawn) [5-O-Caffeoylquinic acid (2), 5-O-Caffeoylquinic acid]",
    "IC50": "474 µM"
  }
]

Query molecule follows.
(Q) Look up IC50: COc1cc(/C=C/C(=O)OC[C@H]2O[C@@](CO)(O[C@H]3O[C@H](CO)[C@@H](O)[C@H](O)[C@H]3O)[C@@H](OC(=O)/C=C/c3ccc(O)c(OC)c3)[C@@H]2O)ccc1O [Helonioside A (9)]
(A) > 1000 µM

====

# experimentalSystem: rat lens aldose reductase (Rattus norvegicus)
# Construct: The rat lenses were homogenized and centrifuged at 10,000 rpm (4 °C, 20 min) and the supernatant was used as an enzyme source
# testName: AR assay (rat lens homogenate, decrease in β-NADPH absorption)
# assaySetup: isolated compounds; tested 0.1–100 µM; ND: no detection within test concentration; mean ± SD (n = 3)
experimentalReadout: log10 of IC50 (log10 of the value in µM)
Form field - Quantity: IC50; Unit: µM; Scale: log10

These solved cases illustrate the format of a correct answer.
[
  {
    "compound": "COc1cc(/C=C/C(=O)OC[C@H]2O[C@@](CO)(O[C@H]3O[C@H](CO)[C@@H](O)[C@H](O)[C@H]3O)[C@@H](OC(=O)/C=C/c3ccc(O)c(OC)c3)[C@@H]2O)ccc1O [Helonioside A (9)]",
    "log10 of IC50": 1.54
  },
  {
    "compound": "Oc1ccc(/C=C/c2cc(O)cc(O)c2)cc1 [trans-Resveratrol (8), 3,5,4′-Trihydroxy-trans-stilbene]",
    "log10 of IC50": 1.78
  },
  {
    "compound": "CC1OC(Oc2c(O)cc(O)c3c(=O)cc(-c4ccc(O)cc4)oc23)C(O)C(O)C1O (centres unmarked) [Isoscutellarein-8-O-rhamnoside (10), Isoscutellarein 8-O-rhamnoside]",
    "log10 of IC50": 1.23
  },
  {
    "compound": "O=C(O)CC1(CC(=O)O)CCCC1 [TMG, 3,3′-tetramethyleneglutaric acid, reference compound]",
    "log10 of IC50": 0.84
  }
]

Could I get log10 of IC50 for every one of these entries?
1. O=C(/C=C/c1ccc(O)c(O)c1)OC1CC(O)(C(=O)O)CC(O)C1O (centres unmarked) [5-O-Caffeoylquinic acid (2), 5-O-Caffeoylquinic acid]
2. CC1OC(Oc2cc(O)c3c(=O)c(OC4OC(CO)C(O)C(O)C4O)c(-c4ccc(O)cc4)oc3c2)C(O)C(O)C1O (centres unmarked)
3. O=C(/C=C/c1ccc(O)c(O)c1)OC1CC(O)(C(=O)O)CC(O)C1O (centres unmarked) [3-O-Caffeoylquinic acid (3), 3-O-Caffeoylquinic acid]
4. C[C@@H]1O[C@@H](Oc2c(-c3ccc(O)c(O)c3)oc3cc(O)cc(O)c3c2=O)[C@H](O)[C@H](O)[C@H]1O [Quercitrin (6), Quercetin 3-O-α-L-rhamnoside]

(A)
1. 1.94
2. 0.97
3. -0.22
4. -0.25

====

# experimentalSystem: α-glucosidase from Saccharomyces cerevisiae
# testName: α-Glucosidase inhibition assay (p-NPG)
# assaySetup: isolated compounds; tested 1–1000 µM; mean ± SD (n = 3)
Answer each item with its documented pIC50.
Numbers only, as −log10 of the molar value.

These solved cases illustrate the format of a correct answer.
[
  {
    "compound": "CC1OC(Oc2cc(O)c3c(=O)c(OC4OC(CO)C(O)C(O)C4O)c(-c4ccc(O)cc4)oc3c2)C(O)C(O)C1O (stereo not shown)",
    "pIC50": 3.22
  },
  {
    "compound": "C[C@@H]1O[C@@H](Oc2c(-c3ccc(O)c(O)c3)oc3cc(O)cc(O)c3c2=O)[C@H](O)[C@H](O)[C@H]1O [Quercitrin (6), Quercetin 3-O-α-L-rhamnoside]",
    "pIC50": 3.87
  },
  {
    "compound": "Oc1ccc(/C=C/c2cc(O)cc(O)c2)cc1 [trans-Resveratrol (8), 3,5,4′-Trihydroxy-trans-stilbene]",
    "pIC50": 5.22
  }
]

Query compound follows.
(Q) Look up pIC50: CC1OC(Oc2c(O)cc(O)c3c(=O)cc(-c4ccc(O)cc4)oc23)C(O)C(O)C1O (stereo not shown) [Isoscutellarein-8-O-rhamnoside (10), Isoscutellarein 8-O-rhamnoside]
(A) 4.35
